Test system: biotinyl-Trp-oxazolone
Assay: self-aminoacylation, catalytic enhancement (BWO) (fold over background); higher = more active; k-Seq, kA / k0A0; sequences stand for … in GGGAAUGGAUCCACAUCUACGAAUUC…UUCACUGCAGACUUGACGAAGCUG
Variants at the floor of the assay were thinned out.
Assign rule met whenever self-aminoacylation does not fall below 4; assign rule not met whenever it does.

Example results:
AACUUUGCUAGUAGUCGCAAG [Fam3.1 aminoacylation ribozyme variant]: rule not met
CCACACUUCAAUCAAUCGUUC [Fam1B.1 aminoacylation ribozyme variant]: rule not met
AUUUCCCUGGUUAUCGAGUGA [Fam2.1 aminoacylation ribozyme variant]: rule met
CCACACUCCAAGCAAUCGGUA [Fam1B.1 aminoacylation ribozyme variant]: rule not met

Check the entry ACACACUUCAAGCAAUCGGCC [Fam1B.1 aminoacylation ribozyme variant] : does self-aminoacylation equal or exceed 4?
rule met

Check the entry CUACUUCAAGGAAUCGGUCUG [Fam1A.1 aminoacylation ribozyme variant] : does self-aminoacylation equal or exceed 4?
rule not met

Check the entry AAGCUAGCUAAUAGUCGCAAG [Fam3.1 aminoacylation ribozyme variant] : does self-aminoacylation equal or exceed 4?
rule not met

Check the entry AUUAGGCUGGUCAUCGAGUGA [Fam2.1 aminoacylation ribozyme variant] : does self-aminoacylation equal or exceed 4?
rule met

Check the entry AUUACCCUGGUCAUCACGUGA [Fam2.1 aminoacylation ribozyme variant] : does self-aminoacylation equal or exceed 4?
rule met
